- Test System: human β3 adrenergic receptor (Homo sapiens, UniProt P13945)
- Construct: expressed in transfected cells; host or cells: Chinese hamster ovary (CHO) cells, stably transfected
- Sequence (P13945 whole entry): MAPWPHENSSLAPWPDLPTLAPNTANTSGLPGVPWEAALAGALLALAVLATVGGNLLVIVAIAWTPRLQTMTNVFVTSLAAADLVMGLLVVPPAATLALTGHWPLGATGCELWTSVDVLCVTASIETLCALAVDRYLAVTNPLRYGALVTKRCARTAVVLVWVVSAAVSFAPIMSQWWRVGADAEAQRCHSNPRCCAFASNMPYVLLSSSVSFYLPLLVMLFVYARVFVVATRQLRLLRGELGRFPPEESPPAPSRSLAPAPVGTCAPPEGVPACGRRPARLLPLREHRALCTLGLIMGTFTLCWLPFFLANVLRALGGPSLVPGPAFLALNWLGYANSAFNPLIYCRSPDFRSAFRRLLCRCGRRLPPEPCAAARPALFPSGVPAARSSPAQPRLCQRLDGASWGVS
- Protocol Details: Beta-3 agonist in vitro functional assay: cAMP production (LANCE TR-FRET) in CHO cells stably transfected with the cloned β3 receptor
- Assay type: cell-based
- Test Settings: Human β3 agonist functional activity
Measured Attribute: EC50

INSERT INTO results (smiles_text, observed_value) VALUES
  ('O=C(c1ccc(C[C@@H]2CC[C@H]([C@H](O)c3ccccc3)N2)cc1)N1CCc2c(O)noc2C1', '100 to 999 nM');

----------
Each item that follows carries a reported pEC50.
- Test System: human β3 adrenergic receptor (Homo sapiens, UniProt P13945)
- Construct: expressed in transfected cells; host or cells: Chinese hamster ovary (CHO) cells, stably transfected
- Protocol Details: Beta-3 agonist in vitro functional assay: cAMP production (LANCE TR-FRET) in CHO cells stably transfected with the cloned β3 receptor
- Format: cell-based
- Test Settings: Table 7; cAMP, CHO cells; ranges as given for Tables 6 and 7; read-out: Human β3 agonist functional activity
pEC50: −log10 of the molar value.
Measured Attribute: pEC50

INSERT INTO measurements (compound, observed_value) VALUES
  ('N#CC1(c2ncccn2)C2CN(C(=O)c3ccc(C[C@@H]4CC[C@H]([C@H](O)c5ccccc5)N4)cc3)CC21 (stereo partly shown) [Example 237]', '7.00 to 8.00'),
  ('O=C(c1ncco1)C1C2CN(C(=O)c3ccc(C[C@@H]4CC[C@H]([C@H](O)c5ccccc5)N4)cc3)CC21 (stereo partly shown) [Example 234]', '7.00 to 8.00'),
  ('O=C(c1ccc(CC2CCC(C(O)c3ccccc3)N2)cc1)N1CC2C(C1)C2Cn1nccn1 (stereo not shown) [Example 232]', '6.00 to 7.00'),
  ('N#CC1(c2cccnn2)C2CN(C(=O)c3ccc(C[C@@H]4CC[C@H]([C@H](O)c5ccccc5)N4)cc3)CC21 (stereo partly shown) [Example 236]', '7.00 to 8.00'),
  ('N#CC1(c2ccccn2)C2CN(C(=O)c3ccc(C[C@@H]4CC[C@H]([C@H](O)c5ccccc5)N4)cc3)CC21 (stereo partly shown) [Example 238]', '7.00 to 8.00'),
  ('CCOC(=O)C1C2CN(C(=O)c3ccc(CC4CCC(C(O)c5ccccc5)N4)cc3)CC21 (stereo not shown) [Example 230]', '7.00 to 8.00'),
  ('O=C(O)C1C2CN(C(=O)c3ccc(CC4CCC(C(O)c5ccccc5)N4)cc3)CC21 (stereo not shown) [Example 231]', '6.00 to 7.00'),
  ('N#CC1(c2cnccn2)C2CN(C(=O)c3ccc(C[C@@H]4CC[C@H]([C@H](O)c5ccccc5)N4)cc3)CC21 (stereo partly shown) [Example 235]', '7.00 to 8.00'),
  ('O=C(OCc1ccccc1)C1C2CN(C(=O)c3ccc(C[C@@H]4CC[C@H]([C@H](O)c5ccccc5)N4)cc3)CC21 (stereo partly shown) [Example 229]', '> 9.00'),
  ('O=C(c1ccc(CC2CCC(C(O)c3ccccc3)N2)cc1)N1CC2C(C1)C2Cn1ccnn1 (stereo not shown) [Example 233]', '6.00 to 7.00');

----------
- Test System: human β3 adrenergic receptor (Homo sapiens, UniProt P13945)
- Construct: expressed in transfected cells; host or cells: Chinese hamster ovary (CHO) cells, stably transfected
- Protocol Details: Beta-3 agonist in vitro functional assay: cAMP production (LANCE TR-FRET) in CHO cells stably transfected with the cloned β3 receptor
- Assay type: cell-based
- Test Settings: Table 9; Beta-3 agonist in vitro functional assay; read-out: Human β3 agonist functional activity
pEC50: −log10 of the molar value.
Each item that follows carries a reported pEC50.
Measured Attribute: pEC50

INSERT INTO results (compound, observed_value) VALUES
  ('Cc1nnc(C(C)N2CCN(C(=O)c3ccc(C[C@@H]4CC[C@H]([C@H](O)c5ccccc5)N4)cc3)CC2)o1 (some centres unmarked) [Example 424]', '6.00 to 7.00'),
  ('O=C(c1ccc(C[C@@H]2CC[C@H]([C@H](O)c3ccccc3)N2)cc1)N1CCN(c2nccs2)CC1 [Example 378]', '7.00 to 8.00'),
  ('O=C(c1ccc(C[C@@H]2CC[C@H]([C@H](O)c3ccccc3)N2)cc1)N1CCN(Cc2nccs2)CC1 [Example 394]', '7.00 to 8.00'),
  ('O=C(O)c1cccnc1N1CCN(C(=O)c2ccc(C[C@@H]3CC[C@H]([C@H](O)c4ccccc4)N3)cc2)CC1 [Example 365]', '6.00 to 7.00'),
  ('O=C(c1ccc(C[C@@H]2CC[C@H]([C@H](O)c3ccccc3)N2)cc1)N1CCN(Cc2ncccc2F)CC1 [Example 418]', '7.00 to 8.00'),
  ('O=C(O)COc1cccnc1N1CCN(C(=O)c2ccc(C[C@@H]3CC[C@H]([C@H](O)c4ccccc4)N3)cc2)CC1 [Example 367]', '6.00 to 7.00'),
  ('CC(=O)N1CCN(C(=O)c2ccc(C[C@@H]3CC[C@H]([C@H](O)c4ccccc4)N3)cc2)CC1 [Example 343]', '6.00 to 7.00'),
  ('COc1ccccc1CN1CCN(C(=O)c2ccc(C[C@@H]3CC[C@H]([C@H](O)c4ccccc4)N3)cc2)CC1 [Example 409]', '7.00 to 8.00'),
  ('COc1cccnc1N1CCN(C(=O)c2ccc(C[C@@H]3CC[C@H]([C@H](O)c4ccccc4)N3)cc2)CC1 [Example 361]', '7.00 to 8.00'),
  ('CC(C)n1nnc(CN2CCN(C(=O)c3ccc(C[C@@H]4CC[C@H]([C@H](O)c5ccccc5)N4)cc3)CC2)n1 [Example 402]', '7.00 to 8.00'),
  ('O=C(c1ccc(C[C@@H]2CC[C@H]([C@H](O)c3ccccc3)N2)cc1)N1CCN(c2noc3ccccc23)CC1 [Example 385]', '7.00 to 8.00'),
  ('O=C(c1ccc(C[C@@H]2CC[C@H]([C@H](O)c3ccccc3)N2)cc1)N1CCN(Cc2nc3ccccc3o2)CC1 [Example 403]', '8.00 to 9.00'),
  ('O=C(c1ccc(C[C@@H]2CC[C@H]([C@H](O)c3ccccc3)N2)cc1)N1CCN(C(=O)c2ccco2)CC1 [Example 349]', '6.00 to 7.00'),
  ('Cc1noc(C(C)N2CCN(C(=O)c3ccc(C[C@@H]4CC[C@H]([C@H](O)c5ccccc5)N4)cc3)CC2)n1 (some centres unmarked) [Example 422]', '7.00 to 8.00');

----------
- Test System: human β3 adrenergic receptor (Homo sapiens, UniProt P13945)
- Construct: expressed in transfected cells; host or cells: Chinese hamster ovary (CHO) cells, stably transfected
- Protocol Details: Beta-3 agonist in vitro functional assay: cAMP production (LANCE TR-FRET) in CHO cells stably transfected with the cloned β3 receptor
- Format: cell-based
- Test Settings: Table 10; Beta-3 agonist in vitro functional assay; read-out: Human β3 agonist functional activity
Each item that follows carries a reported EC50.
Measured Attribute: EC50

INSERT INTO results (compound, observed_value) VALUES
  ('CC(C(=O)NC1CCOC1)N1CCN(C(=O)c2ccc(C[C@@H]3CC[C@H]([C@H](O)c4ccccc4)N3)cc2)CC1 (stereo partly drawn) [Example 457]', '10 to 99.9 nM'),
  ('CC(C(=O)N1CCC(O)CC1)N1CCN(C(=O)c2ccc(C[C@@H]3CC[C@H]([C@H](O)c4ccccc4)N3)cc2)CC1 (stereo partly drawn) [Example 489]', '10 to 99.9 nM'),
  ('CC(C(=O)N1CCSC1)N1CCN(C(=O)c2ccc(C[C@@H]3CC[C@H]([C@H](O)c4ccccc4)N3)cc2)CC1 (stereo partly drawn) [Example 481]', '100 to 999 nM'),
  ('CC(C(=O)O)N1CCN(C(=O)c2ccc(C[C@@H]3CC[C@H]([C@H](O)c4ccccc4)N3)cc2)CC1 (stereo partly drawn) [Example 433]', '1 to 9.9 nM'),
  ('CC(C(=O)N1CC(F)C1)N1CCN(C(=O)c2ccc(C[C@@H]3CC[C@H]([C@H](O)c4ccccc4)N3)cc2)CC1 (stereo partly drawn) [Example 472]', '1 to 9.9 nM'),
  ('CC(C(=O)N1CCCC2(CCCO2)C1)N1CCN(C(=O)c2ccc(C[C@@H]3CC[C@H]([C@H](O)c4ccccc4)N3)cc2)CC1 (stereo partly drawn) [Example 497]', '10 to 99.9 nM');

----------
- Test System: human β3 adrenergic receptor (Homo sapiens, UniProt P13945)
- Construct: expressed in transfected cells; host or cells: Chinese hamster ovary (CHO) cells, stably transfected
- Protocol Details: Beta-3 agonist in vitro functional assay: cAMP production (LANCE TR-FRET) in CHO cells stably transfected with the cloned β3 receptor
- Format: cell-based
- Test Settings: Table 5; cAMP, CHO cells; read-out: Human β3 agonist functional activity
pEC50: −log10 of the molar value.
Each item that follows carries a reported pEC50.
Measured Attribute: pEC50

INSERT INTO results (compound, test_system, observed_value) VALUES
  ('O=C(c1ccc(C[C@@H]2CC[C@H]([C@H](O)c3ccccc3)N2)cc1)N1CCC(S(=O)(=O)c2ccccc2)CC1', 'human β3 adrenergic receptor (Homo sapiens, UniProt P13945)', '7.00 to 8.00'),
  ('O=C(c1ccc(C[C@@H]2CC[C@H]([C@H](O)c3ccccc3)N2)cc1)N1CCC(S(=O)(=O)c2ccc(F)cc2F)CC1', 'human β3 adrenergic receptor (Homo sapiens, UniProt P13945)', '7.00 to 8.00'),
  ('CC(Oc1ccncn1)C1CCN(C(=O)c2ccc(C[C@@H]3CC[C@H]([C@H](O)c4ccccc4)N3)cc2)CC1 (stereo partly shown)', 'human β3 adrenergic receptor (Homo sapiens, UniProt P13945)', '6.00 to 7.00'),
  ('O=C(c1ccc(C[C@@H]2CC[C@H]([C@H](O)c3ccccc3)N2)cc1)N1CCC(S(=O)(=O)c2ccccc2F)CC1', 'human β3 adrenergic receptor (Homo sapiens, UniProt P13945)', '8.00 to 9.00'),
  ('CC(C1CCN(C(=O)c2ccc(C[C@@H]3CC[C@H]([C@H](O)c4ccccc4)N3)cc2)CC1)n1ncccc1=O (stereo partly shown)', 'human β3 adrenergic receptor (Homo sapiens, UniProt P13945)', '7.00 to 8.00'),
  ('CCOC(=O)C1CCN(C(=O)c2ccc(C[C@@H]3CC[C@H]([C@H](O)c4ccccc4)N3)cc2)CC1', 'human β3 adrenergic receptor (Homo sapiens, UniProt P13945)', '7.00 to 8.00'),
  ('O=C(c1ccc(C[C@@H]2CC[C@H]([C@H](O)c3ccccc3)N2)cc1)N1CCC(S(=O)(=O)c2cccc(F)c2)CC1', 'human β3 adrenergic receptor (Homo sapiens, UniProt P13945)', '8.00 to 9.00');
